# SUBJECT OF TEST: Tau
# EXPERIMENT: rat primary cortical neurons, FLIPR, 25 uM ASO
Bases are written 5' to 3'; sugars and linkages follow in the same order, as letters with counts (s phosphorothioate, o phosphodiester; PS: all linkages phosphorothioate). The collection does not say whether C is 5-methylated. l = locked nucleic acid (LNA); d = 2'-deoxy (DNA)
A collection of sequences and their measured calcium oscillation score

See these solved cases before continuing.
SEQUENCE ENTRY | calcium oscillation score
GAGCCACACTTGGAGGTCAC (sugars l3 d14 l3, PS) | 0 % of control
TTTGTAGACTATTTGC (sugars l3 d10 l3, PS) | 0 % of control
TATTGTCCAGGGACCC (sugars l3 d10 l3, PS) | 29.9 % of control
TATACAGTTGGCCCTACCAT (sugars l3 d14 l3, PS) | 16.7 % of control
CTTTTGAACCCATTCCA (sugars l3 d12 l2, PS) | 82.2 % of control

Given item GGAAAGATGAAATTTGCTCT (sugars l3 d14 l3, PS) , the value recorded as its calcium oscillation score is 74.1 % of control

Given item CTAAGGCAAGGCCTAT (sugars l3 d10 l3, PS) , the value recorded as its calcium oscillation score is 83 % of control

Given item GGAACTATTGATAA (sugars l3 d8 l3, PS) , the value recorded as its calcium oscillation score is 0 % of control

Given item GCGTTCTCGCGGAA (sugars l3 d8 l3, PS) , the value recorded as its calcium oscillation score is 3.83 % of control

Given item CTCAGCTCTTCCATAAGCAG (sugars l3 d14 l3, PS) , the value recorded as its calcium oscillation score is 40.3 % of control

Given item GTTATACAGTTGGCCCTACC (sugars l3 d14 l3, PS) , the value recorded as its calcium oscillation score is 14.3 % of control

----------
# SUBJECT OF TEST: Tau
# EXPERIMENT: rat primary cortical neurons, FLIPR, 25 uM ASO
Bases are written 5' to 3'; sugars and linkages follow in the same order, as letters with counts (s phosphorothioate, o phosphodiester; PS: all linkages phosphorothioate). The collection does not say whether C is 5-methylated. l = locked nucleic acid (LNA); d = 2'-deoxy (DNA)
ASSAY METRIC: calcium oscillation score

See these solved cases before continuing.
SEQUENCE ENTRY | calcium oscillation score
CATGCTTACACACCAC (sugars l2 d10 l4, PS) | 82.9 % of control
CATGATTGTGGGCTTA (sugars l3 d10 l3, PS) | 0 % of control
ACCAGTTACCATCATAC (sugars l4 d11 l2, PS) | 93.2 % of control
ATTAATTACACCCCTG (sugars l3 d9 l4, PS) | 5.47 % of control
TTATTTATTCTTTTTATTAT (sugars l4 d12 l4, PS) | 66.3 % of control
AAGATACATGCGTCCT (sugars l3 d10 l3, PS) | 112 % of control
CGACTTATCTATCCAT (sugars l4 d9 l3, PS) | 46.2 % of control
AGTTCCCACAATTCCTA (sugars l2 d13 l2, PS) | 38.7 % of control
TTATTCTTTTTTTTTCCACA (sugars l2 d14 l4, PS) | 30.3 % of control
CAGCTTCGTCTTCCAG (sugars l3 d10 l3, PS) | 75.9 % of control

Given item ACCATCCAAGTCAATGCCTG (sugars l3 d14 l3, PS) , the value recorded as its calcium oscillation score is 4.03 % of control

Given item CCTGAAACACCTTTTTCC (sugars l2 d14 l2, PS) , the value recorded as its calcium oscillation score is 71.1 % of control

Given item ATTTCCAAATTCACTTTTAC (sugars l1 d17 l2, PS) , the value recorded as its calcium oscillation score is ≥ 200 % of control

Given item TTAAGTGATTAACCAATTAA (sugars l3 d14 l3, PS) , the value recorded as its calcium oscillation score is 40.1 % of control

Given item GCCCCACTTTTAATTAA (sugars l2 d11 l4, PS) , the value recorded as its calcium oscillation score is 86.2 % of control

Given item ATCCTAAGTCAACCACA (sugars l2 d11 l4, PS) , the value recorded as its calcium oscillation score is 69 % of control

Given item AGGTCAACTGGTTT (sugars l3 d8 l3, PS) , the value recorded as its calcium oscillation score is 117 % of control

Given item AAGTCCCGAGCCAAAGCCGA (sugars l3 d14 l3, PS) , the value recorded as its calcium oscillation score is 0 % of control

Given item GTCTGTCTTGGCTTTG (sugars l3 d10 l3, PS) , the value recorded as its calcium oscillation score is 0 % of control

Given item GACTTGTACACGAT (sugars l3 d8 l3, PS) , the value recorded as its calcium oscillation score is 112 % of control

Given item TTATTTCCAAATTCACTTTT (sugars lldldldddddddddldlll, PS) , the value recorded as its calcium oscillation score is 106 % of control

Given item GTTGCCTAATGAGCCACACT (sugars l3 d14 l3, PS) , the value recorded as its calcium oscillation score is 59.8 % of control

Given item CTTTGTAATTCCTTCTCT (sugars l2 d13 l3, PS) , the value recorded as its calcium oscillation score is 63.3 % of control

Given item ACTCATTTACCAATTATCTT (sugars l2 d14 l4, PS) , the value recorded as its calcium oscillation score is 60.6 % of control

Given item GAACTTCTAGTTATACAGTT (sugars l3 d14 l3, PS) , the value recorded as its calcium oscillation score is 26.2 % of control

Given item ATTTTACTACTCTCTTTT (sugars l4 d10 l4, PS) , the value recorded as its calcium oscillation score is 75 % of control

Given item GTCCTAATCCTGTGCT (sugars l3 d10 l3, PS) , the value recorded as its calcium oscillation score is 87.8 % of control

Given item TCTTTATTAACACTCCAC (sugars l2 d12 l4, PS) , the value recorded as its calcium oscillation score is 64.6 % of control

Given item AAAATATCCTTACCATCCT (sugars l2 d13 l4, PS) , the value recorded as its calcium oscillation score is 73.9 % of control

Given item AACTGATTCCATCACCA (sugars l3 d11 l3, PS) , the value recorded as its calcium oscillation score is 69.7 % of control

----------
A collection of sequences and their measured calcium oscillation score
# SUBJECT OF TEST: Tau
# EXPERIMENT: rat primary cortical neurons, FLIPR, 25 uM ASO
Bases are written 5' to 3'; sugars and linkages follow in the same order, as letters with counts (s phosphorothioate, o phosphodiester; PS: all linkages phosphorothioate). The collection does not say whether C is 5-methylated. l = locked nucleic acid (LNA); d = 2'-deoxy (DNA)

See these solved cases before continuing.
SEQUENCE ENTRY | calcium oscillation score
TTCTAGTTATACAGTTGGCC (sugars l3 d14 l3, PS) | 26.2 % of control
TTCTAATTTAGTCACCA (sugars l3 d10 l4, PS) | 65.9 % of control

Given item TGGAAAGATGAAATTTGCTC (sugars l3 d14 l3, PS) , the value recorded as its calcium oscillation score is 5.81 % of control

Given item CACTCTGATACTATTAT (sugars l4 d9 l4, PS) , the value recorded as its calcium oscillation score is 69 % of control

Given item AACTTACCAGTTTTTCA (sugars l4 d9 l4, PS) , the value recorded as its calcium oscillation score is 62.3 % of control

Given item CGTCTTTGCTTTTACTGACC (sugars l3 d14 l3, PS) , the value recorded as its calcium oscillation score is 29.6 % of control

----------
A collection of sequences and their measured calcium oscillation score
# SUBJECT OF TEST: Tau
# EXPERIMENT: rat primary cortical neurons, FLIPR, 25 uM ASO
Bases are written 5' to 3'; sugars and linkages follow in the same order, as letters with counts (s phosphorothioate, o phosphodiester; PS: all linkages phosphorothioate). The collection does not say whether C is 5-methylated. l = locked nucleic acid (LNA); d = 2'-deoxy (DNA)

SEQUENCE ENTRY | ASSAY METRIC | RESULT
AATTCATAAATGACTATACT (sugars l3 d14 l3, PS) | calcium oscillation score | 40.3 % of control
CTACTATTTACTATGCA (sugars l4 d10 l3, PS) | calcium oscillation score | 78.4 % of control

Consider the record given below.
Given item CTTTATTTCCAAATTCACT (sugars l4 d10 l1 d2 l2, PS) , the value recorded as its calcium oscillation score is 125 % of control

----------
# SUBJECT OF TEST: Tau
# EXPERIMENT: rat primary cortical neurons, FLIPR, 25 uM ASO
Bases are written 5' to 3'; sugars and linkages follow in the same order, as letters with counts (s phosphorothioate, o phosphodiester; PS: all linkages phosphorothioate). The collection does not say whether C is 5-methylated. l = locked nucleic acid (LNA); d = 2'-deoxy (DNA)
ASSAY METRIC: calcium oscillation score

See these solved cases before continuing.
SEQUENCE ENTRY | calcium oscillation score
TGGACGTTGCTAAGAT (sugars l3 d10 l3, PS) | 0 % of control
CACCTTACCACTTTCA (sugars l3 d10 l3, PS) | 115 % of control
CTAATCCTGTGCTTC (sugars l3 d9 l3, PS) | 73.1 % of control
CGCCCCACTTTTAATT (sugars l3 d11 l2, PS) | 58.3 % of control
TGTCCAAACTTTTACT (sugars l4 d8 l4, PS) | 60.8 % of control

Given item CGCAGGCGCGAGCAGC (sugars l3 d10 l3, PS) , the value recorded as its calcium oscillation score is 20.7 % of control

Given item TTTATTTCCAAATTCACTTT (sugars lldllddddddddddlldll, PS) , the value recorded as its calcium oscillation score is 106 % of control

Given item AAAATATCCTTACCATCC (sugars l4 d10 l4, PS) , the value recorded as its calcium oscillation score is 70.2 % of control

Given item CTAGTTATACAGTTGGCCCT (sugars l3 d14 l3, PS) , the value recorded as its calcium oscillation score is 33.3 % of control

Given item TGAGCCACACTTGGAGGTCA (sugars l3 d14 l3, PS) , the value recorded as its calcium oscillation score is 4.52 % of control

Given item CATAGTCACTCTGGTG (sugars l3 d10 l3, PS) , the value recorded as its calcium oscillation score is 1.9 % of control

Sourced from the OligoGym collection
